pIC50: −log10 of the molar value.
We begin with pIC50 values for Fibroblast growth factor receptor 1 (Homo sapiens, UniProt P11362), as collected from the published literature.

Observe how each entry below is paired with its result.
COc1cc2nccc(Oc3ccc4c(C(=O)N5CC[C@H](F)C5)coc4c3)c2cc1C(N)=O = 6.00 to 6.70
Cc1[nH]c2c(c1C(=O)N1CCC[C@H]1CN1CCCC1)CC/C2=C1/C(=O)Nc2c(Cl)cccc21 = 5.72
C=CC(=O)NCc1cc2c(cn1)CN(c1c(F)c(OC)cc(OC)c1F)C(=O)N2CC1CC1 = 6.70 to 7.52

Exercise: What is its pIC50 for Fibroblast growth factor receptor 1 (Homo sapiens, UniProt P11362)? Entry: "COCCNc1cc(NC(=O)N2CCCc3cc(CN4C(=O)OCC45CC5)c(C=O)nc32)ncc1C#N"
Key: < 5.00

* * *

Multiple publications report IC50 for Fibroblast growth factor receptor 1 (Homo sapiens, UniProt P11362); what follows is a combined list.

COc1cc2nccc(Oc3ccc(NC(=S)N4CCC(F)(F)CC4)c(Cl)c3)c2cc1C(N)=O = 200 to 1000 nM
CC(Oc1ccc2[nH]nc(/C(F)=C/c3ccc(CN4CCC(CO)CC4)nc3)c2c1)c1c(Cl)cncc1Cl (stereo not shown) = 10 to 50 nM
CNC(=O)c1ccc(-c2cc3nc(CCc4cc(OC)cc(OC)c4)cnc3[nH]2)cn1 = < 100 nM
COc1cc(OC)c(Cl)c(-c2cc3[nH]nc(-c4cnn(CC(=O)N5CCC(OC)C5)c4)c3cn2)c1Cl (stereo not shown) = < 100 nM
COc1cc(Nc2ncnc(-n3c(NC4CCCc5ccccc54)nc4ccccc43)n2)cc(OC)c1OC (stereo not shown) = < 764 nM
COc1cc2nccc(Oc3ccc(NC(=S)NC4CCOC4=O)c(Cl)c3)c2cc1C(N)=O (stereo not shown) = 200 to 1000 nM

Exercise: I'd like to know its IC50. The compound in question is "COc1cc(Nc2ncnc(Nc3ccc(C)c(N)c3)n2)cc(OC)c1OC"
Key: 1050 to 6280 nM

Exercise: Record request: IC50 value, item CC(Oc1ccc2[nH]nc(-c3ccc(C(=O)N4CCOCC4)cc3)c2c1)c1c(Cl)cncc1Cl (stereo not shown)
Key: 50 to 1000 nM

Exercise: Query: IC50; subject: "COC(=O)c1sccc1Nc1ncnc(Nc2cc(OC)c(OC)c(OC)c2)n1"
Key: > 10800 nM

Exercise: Return reported IC50; argument: CC(Oc1ccc2[nH]nc(/C=C/c3ccc(CN4CCC(Cc5ccccc5)CC4)cc3)c2c1)c1c(Cl)cncc1Cl (stereo not shown)
Key: 50 to 1000 nM

Exercise: Look at this compound and give its reported IC50. COc1cc(OC)c(F)c(-c2cc3[nH]nc(-c4ccc5c(c4)CC(C(=O)N4CCN(C)CC4)O5)c3cn2)c1F (stereo not shown)
Key: < 100 nM

Exercise: Which IC50 value is on record for "COc1cc(Nc2ncnc(Nc3ccc(C(=O)O)cc3)n2)cc(OC)c1OC" ?
Key: > 11300 nM

Exercise: May I ask what IC50 has been recorded for "COCCN1CCC(Nc2ccc3c(c2)/C(=C(\c2ccc(C)c(F)c2)c2ncc[nH]2)C(=O)N3)CC1" ?
Key: < 50 nM

* * *

Here, compounds appear alongside IC50 reported for Fibroblast growth factor receptor 1 (Homo sapiens) in the literature.

COc1cc(CCc2cnc3[nH]c(-c4ccc(C(=O)O)cc4)cc3n2)cc(OC)c1 = < 0.1 µM
C[C@H](Oc1ccc2[nH]nc(/C(O)=C/c3ccc(CN4CCOCC4)nc3)c2c1)c1c(Cl)cncc1Cl = 0.05 to 1 µM
CCOC(=O)c1c(C)[nH]c2c1CC/C2=C1/C(=O)Nc2ccc(S(C)(=O)=O)cc21 = 14.5 µM

Exercise: Find the recorded IC50 belonging to "CCCNc1c(Nc2ccc(Oc3ccnc4cc(OC)c(C(N)=O)cc34)cc2Cl)c(=O)c1=O" and report it.
Key: 0.2 to 1 µM

Exercise: // query IC50 value for entry "COCCNc1cc(NC(=O)N2CCCc3cc(-c4cnc(C)s4)c(C=O)nc32)ncc1C#N"
Key: > 10 µM

Exercise: Please give the measured IC50 for this compound: "Cn1cc(-c2ccc3c(c2)ncn3-c2cc(-c3ccccc3F)cc(NS(=O)(=O)C3CC3)n2)cn1"
Key: 0.00542 µM

Exercise: Quick check: IC50 of "COc1cc(Nc2ncnc(-n3c(Nc4ccc5cn[nH]c5c4)nc4ccccc43)n2)cc(OC)c1OC" ?
Key: < 0.785 µM

Exercise: Please look up its IC50: CO[C@H]1COCC1Nc1cc(NC(=O)N2CCCc3cc(CN4CCOCC4=O)c(C=O)nc32)ncc1C#N (stereo partly shown)
Key: > 10 µM

Exercise: IC50 for "COc1cc(Nc2ncnc(Nc3ccc(C)c(NS(C)(=O)=O)c3)n2)cc(OC)c1OC" ?
Key: 0.869 to 5.21 µM

Exercise: For the compound shown here, CO[C@H]1COCC1Oc1cc(NC(=O)N2CCCc3cc(CN4C(=O)OC[C@@H]4C)c(C=O)nc32)ncc1C#N (stereo partly shown) , give the reported IC50.
Key: > 10 µM

Exercise: Reported IC50, compound "COc1cc(Nc2ncnc(-c3ccnc(NCCCO)c3)n2)cc(OC)c1OC" : ____
Key: > 10.9 µM

Exercise: # query: IC50 of entry "CC(C)Oc1cc(NC(=O)Nc2nccc(C=O)n2)ncc1C#N"
Key: > 10 µM

Exercise: Which IC50 value belongs to "O=c1ccc(-c2ccc3c(c2)ncn3-c2cc(NS(=O)(=O)C3CC3)cc(-c3ccc(F)cc3F)c2)c[nH]1" ?
Key: 0.032 µM

Exercise: Look at this compound and give its reported IC50. "CCN1CCC(Oc2ccc3c(c2)/C(=C(\c2cccc(Cl)c2)c2nc4ccccc4[nH]2)C(=O)N3)CC1"
Key: < 0.05 µM

Exercise: For "C=CC(=O)Nc1cc(N2CCNCC2)ccc1Nc1ncc2cc(-c3c(Cl)c(OC)cc(OC)c3Cl)c3nccn3c2n1" , what is its reported IC50?
Key: < 0.05 µM

Exercise: Look at this compound and give its reported IC50. "COc1cc2nccc(Oc3ccc(NC(=S)N4CCCC4)c(Cl)c3F)c2cc1C(N)=O"
Key: < 0.05 µM

Exercise: Quick one: IC50 for "CNC(=O)c1cc(C)c(F)c(-c2cnn3cc(-c4cnn(C)c4)c(N[C@H]4CCOC4)nc23)c1" ?
Key: 0.03 to 0.2 µM

Exercise: Which measured IC50 value corresponds to "COc1cc(OC)c(F)c(-c2cc3[nH]nc(-c4ccc5c(c4)CN(C4CCOCC4)C5=O)c3cn2)c1F" ?
Key: < 0.1 µM

Exercise: Recorded IC50 of "COc1cc2nccc(Oc3cc(F)c(NC(=S)N4CCCC4)c(F)c3)c2cc1C(N)=O" , please.
Key: 0.2 to 1 µM

* * *

pIC50: −log10 of the molar value.
Study the reported pIC50 values for Fibroblast growth factor receptor 1 (Homo sapiens, UniProt P11362) given below; they originate from different publications.

// solved cases for pIC50 follow
COc1cc(Nc2ncnc(Nc3nnc(-c4ccccc4)[nH]3)n2)cc(OC)c1OC = < 4.97
COc1cc(Nc2ncnc(-n3ccc4c(OC)cccc43)n2)cc(OC)c1OC = < 4.96
C[C@@H](Oc1ccc2[nH]nc(-c3cccc(C(=O)N4CCC(CO)CC4)c3)c2c1)c1c(Cl)cncc1Cl = 6.00 to 7.30

Let's switch to this compound now.
Exercise: Report pIC50 for "Cc1[nH]c2c(c1C(=O)N1CCC[C@H]1CN1CCCC1)CC/C2=C1/C(=O)Nc2ccc(F)cc21" please.
Key: 7.10

* * *

The entries that follow carry pIC50 values tested on Fibroblast growth factor receptor 1 (Homo sapiens), drawn from several published reports.
pIC50: −log10 of the molar value.

Check out these entries, answers already filled in.
COc1cc(Nc2ncnc(N3CCc4ccccc43)n2)cc(OC)c1OC = 5.04 to 5.20
CC(Oc1ccc2[nH]nc(/C=C/c3ccc(CN4CCC(c5ccccc5)CC4)cc3)c2c1)c1c(Cl)cncc1Cl (stereo not shown) = 6.00 to 7.30
COc1cc(Nc2ncnc(Nc3cc(C(C)(C)C)[nH]n3)n2)cc(OC)c1OC = 5.22 to 6.00
Cc1[nH]c(/C=C2\C(=O)Nc3cccc(-c4ccc(Br)cc4)c32)c(C)c1C(=O)NCCN(C(C)C)C(C)C = 6.82
COCCNc1cc(NC(=O)N2CCCc3cc(CN(C)C(=O)[C@H]4CCCN4C(C)=O)c(C=O)nc32)ncc1C#N = < 5.00
C=CC(=O)NCc1cc2c(cn1)CN(c1c(F)c(OC)cc(OC)c1F)C(=O)N2CC1CCN(C(=O)NC(C)C)CC1 = < 6.70
C=CC(=O)N1C[C@@H](CC)[C@H](Nc2ncc3cc(-c4c(Cl)c(OC)cc(OC)c4Cl)ccc3n2)C1 = 7.77
COc1cc(OC)c(F)c(N2Cc3cnc(Nc4cnn(C)c4)cc3C3(CC3)C2=O)c1F = > 7.00
COc1cc2nccc(Oc3ccc(NC(=S)NC4(C(F)(F)F)CC4)c(Cl)c3)c2cc1C(N)=O = 6.00 to 6.70

Read the next record carefully.
Exercise: Notebook entry, Fibroblast growth factor receptor 1 (Homo sapiens) assay: pIC50 of "COc1ccc(-c2cc(NC(C)=O)cc(-n3cnc4cc(-c5cnn(C)c5)ccc43)c2)cn1" = ?
Key: 7.66
